- measurement.notes: Intra-pulmonary (ELF, AC/AM by BAL) and plasma PK after multiple iv doses in healthy adult subjects
- Format: in vivo, human
- condition.description: human, ELF (epithelial lung fluid from BAL) relative to plasma, intravenous, 100 mg, 8-hour sampling time; read-out: ELF to Plasma (Mean, SD)
- Experimental: Concomitant blood samples were taken to compare tissue with serum antibiotic concentrations. […] One standard bronchoscopy was performed for each subject. […] A blood sample was taken at the time of bronschoscopy for plasma urea measurement. […] All the biofluid concentrations were expressed in ng/mL. All concentrations below the limit of quantification (BLQ) or missing data were labeled as such in the concentration data listings. […]
test.readout: Kp at 8 h
In your answer, state the number alone without any accompanying words.

Tell me Kp at 8 h reported for `CN(C)c1cc(CNCC(C)(C)C)c(O)c2c1C[C@H]1C[C@H]3[C@H](N(C)C)C(O)=C(C(N)=O)C(=O)[C@@]3(O)C(O)=C1C2=O` 1.07

---

- measurement.notes: Intra-pulmonary (ELF, AC/AM by BAL) and plasma PK after multiple iv doses in healthy adult subjects
- Assay type: in vivo, human
- condition.description: human, alveolar macrophages (AM); 12 h after fifth 100 mg iv dose; read-out: AM concentration (mean ± SD)
test.readout: concentration at 12 h (ng/mL)
Please give a number only; it is taken to be in ng/mL.

Give reported concentration at 12 h value for `CN(C)c1cc(CNCC(C)(C)C)c(O)c2c1C[C@H]1C[C@H]3[C@H](N(C)C)C(O)=C(C(N)=O)C(=O)[C@@]3(O)C(O)=C1C2=O` 12300

---

- measurement.notes: Intra-pulmonary (ELF, AC/AM by BAL) and plasma PK after multiple iv doses in healthy adult subjects
- Assay type: in vivo, human
- condition.description: human, plasma; 8 h after fifth 100 mg iv dose; read-out: Plasma concentration at time of BAL (mean ± SD)
test.readout: concentration at 8 h (ng/mL)
Form entry: value (ng/mL) — number only.

Note down concentration at 8 h recorded for `CN(C)c1cc(CNCC(C)(C)C)c(O)c2c1C[C@H]1C[C@H]3[C@H](N(C)C)C(O)=C(C(N)=O)C(=O)[C@@]3(O)C(O)=C1C2=O` 560

---

- measurement.notes: Lung tissue versus plasma concentrations in mice
- condition.description: mouse
test.readout: Kp

Annotate the molecule `CN(C)c1cc(CNCC(C)(C)C)c(O)c2c1C[C@H]1C[C@H]3[C@H](N(C)C)C(O)=C(C(N)=O)C(=O)[C@@]3(O)C(O)=C1C2=O` with its measured Kp. 3.7 to 4.4

---

- measurement.notes: Intra-pulmonary (ELF, AC/AM by BAL) and plasma PK after multiple iv doses in healthy adult subjects
- Format: in vivo, human
- condition.description: human, alveolar cells (AC, BAL cell pellet), intravenous, 100 mg, AUC0-24 based on mean concentration at each BAL sampling time; read-out: AC AUCmean
test.readout: AUC (µg·h/mL)
Supply the numeric figure in µg·h/mL, leaving out any unit text.

Answer with the recorded AUC for the molecule listed here: CN(C)c1cc(CNCC(C)(C)C)c(O)c2c1C[C@H]1C[C@H]3[C@H](N(C)C)C(O)=C(C(N)=O)C(=O)[C@@]3(O)C(O)=C1C2=O [Compound 1] 302

---

- measurement.notes: Intra-pulmonary (ELF, AC/AM by BAL) and plasma PK after multiple iv doses in healthy adult subjects
- Assay type: in vivo, human
- condition.description: human, alveolar cells (AC, mostly AM) / plasma, intravenous, 100 mg, FIG. 1, concentration vs. time profile; read-out: mean concentration in AC (mostly AM) higher than that in plasma
test.readout: Kp

For the compound `CN(C)c1cc(CNCC(C)(C)C)c(O)c2c1C[C@H]1C[C@H]3[C@H](N(C)C)C(O)=C(C(N)=O)C(=O)[C@@]3(O)C(O)=C1C2=O` , give its measured Kp value. ~25

---

- measurement.notes: Intra-pulmonary (ELF, AC/AM by BAL) and plasma PK after multiple iv doses in healthy adult subjects
- Type: in vivo, human
- condition.description: human, epithelial lining fluid (ELF); 2 h after fifth 100 mg iv dose; read-out: ELF concentration (mean ± SD)
test.readout: concentration at 2 h (ng/mL)
Quick note: give the figure in ng/mL, leave out the unit.

Identify measured concentration at 2 h associated with `CN(C)c1cc(CNCC(C)(C)C)c(O)c2c1C[C@H]1C[C@H]3[C@H](N(C)C)C(O)=C(C(N)=O)C(=O)[C@@]3(O)C(O)=C1C2=O` 1510

---

- measurement.notes: Intra-pulmonary (ELF, AC/AM by BAL) and plasma PK after multiple iv doses in healthy adult subjects
- Assay type: in vivo, human
- condition.description: human, ELF (epithelial lung fluid from BAL) relative to plasma, intravenous, 100 mg, 1-hour sampling time; read-out: ELF to Plasma (Mean, SD)
test.readout: Kp at 1 h
Just the number.

Give Kp at 1 h for the following molecule: CN(C)c1cc(CNCC(C)(C)C)c(O)c2c1C[C@H]1C[C@H]3[C@H](N(C)C)C(O)=C(C(N)=O)C(=O)[C@@]3(O)C(O)=C1C2=O [Compound 1] 2.72

---

- measurement.notes: Intra-pulmonary (ELF, AC/AM by BAL) and plasma PK after multiple iv doses in healthy adult subjects
- Type: in vivo, human
- condition.description: human, plasma; 24 h after fifth 100 mg iv dose; read-out: Plasma concentration at time of BAL (mean ± SD)
test.readout: concentration at 24 h (ng/mL)
// return numeric value only (unit: ng/mL, not printed)

Supply measured concentration at 24 h of `CN(C)c1cc(CNCC(C)(C)C)c(O)c2c1C[C@H]1C[C@H]3[C@H](N(C)C)C(O)=C(C(N)=O)C(=O)[C@@]3(O)C(O)=C1C2=O` in your reply. 270

---

- measurement.notes: Intra-pulmonary (ELF, AC/AM by BAL) and plasma PK after multiple iv doses in healthy adult subjects
- Format: in vivo, human
- condition.description: human, ELF (epithelial lung fluid from BAL) relative to plasma, intravenous, 100 mg, 24-hour sampling time; read-out: ELF to Plasma (Mean, SD)
test.readout: Kp at 24 h
Number only, no unit.

Please list Kp at 24 h recorded for the compound CN(C)c1cc(CNCC(C)(C)C)c(O)c2c1C[C@H]1C[C@H]3[C@H](N(C)C)C(O)=C(C(N)=O)C(=O)[C@@]3(O)C(O)=C1C2=O [Compound 1] 1.65

---

- measurement.notes: Intra-pulmonary (ELF, AC/AM by BAL) and plasma PK after multiple iv doses in healthy adult subjects
- Assay type: in vivo, human
- condition.description: human, intravenous, 100 mg, 1-hour sampling time; read-out: AM to Plasma (Mean, SD)
test.readout: Kp at 1 h
Answer with a bare number; do not write a unit.

For the molecule `CN(C)c1cc(CNCC(C)(C)C)c(O)c2c1C[C@H]1C[C@H]3[C@H](N(C)C)C(O)=C(C(N)=O)C(=O)[C@@]3(O)C(O)=C1C2=O` , give its reported Kp at 1 h. 13.8

---

- measurement.notes: Intra-pulmonary (ELF, AC/AM by BAL) and plasma PK after multiple iv doses in healthy adult subjects
- Format: in vivo, human
- condition.description: human, plasma, intravenous, 100 mg, AUC0-24 based on median concentration at each BAL sampling time; read-out: Plasma AUCmedian
test.readout: AUC (ng·h/mL)
Please reply with the bare figure in ng·h/mL and do not write the unit itself.

Give the reported AUC for this compound. CN(C)c1cc(CNCC(C)(C)C)c(O)c2c1C[C@H]1C[C@H]3[C@H](N(C)C)C(O)=C(C(N)=O)C(=O)[C@@]3(O)C(O)=C1C2=O [Compound 1] 11800

---

- measurement.notes: Intra-pulmonary (ELF, AC/AM by BAL) and plasma PK after multiple iv doses in healthy adult subjects
- Assay type: in vivo, human
- condition.description: human, ELF (epithelial lung fluid from BAL) relative to plasma, intravenous, 100 mg, 2-hour sampling time; read-out: ELF to Plasma (Mean, SD)
test.readout: Kp at 2 h
Give your answer as a number; write no unit.

For `CN(C)c1cc(CNCC(C)(C)C)c(O)c2c1C[C@H]1C[C@H]3[C@H](N(C)C)C(O)=C(C(N)=O)C(=O)[C@@]3(O)C(O)=C1C2=O` , write its Kp at 2 h. 1.5

---

- measurement.notes: Intra-pulmonary (ELF, AC/AM by BAL) and plasma PK after multiple iv doses in healthy adult subjects
- Assay type: in vivo, human
- condition.description: human, plasma; 4 h after fifth 100 mg iv dose; read-out: Plasma concentration at time of BAL (mean ± SD)
test.readout: concentration at 4 h (ng/mL)
Response body: numeric value in ng/mL, unit text excluded.

Tell me concentration at 4 h reported for `CN(C)c1cc(CNCC(C)(C)C)c(O)c2c1C[C@H]1C[C@H]3[C@H](N(C)C)C(O)=C(C(N)=O)C(=O)[C@@]3(O)C(O)=C1C2=O` 590

// data source = patent US10835542B2
